# Tested on: HOP-62 NSCLC
# method: NCI tumour cell line growth inhibition, 48 h
reported property: TGI (µM)
# value in µM; strip the unit string

// solved cases for TGI follow
compound	unit info	TGI
CSc1ccc2c(cc1=O)C(NC(=O)c1cc(O)c(OC(=O)O)c(O)c1)CCc1cc(O)c(O)c(O)c1-2 (stereo unspecified)	µM	64.5
CN(C)c1ncc(-c2c[nH]c3ccccc23)nc1-c1c[nH]c2ccccc12	µM	22

Sample `COC(=O)c1ccc(NCc2cc(O)c3ccccc3c2O)cc1` — what was its TGI? 32.5

----------
# System: SNB-75 CNS
# method: NCI tumour cell line growth inhibition, 48 h; in the data active means GI50 below about 0.43 µM; inactive means the rest
Allowed answers: YES = active, NO = inactive

compound	answer label
c1ccc(CN2CCC3(CC2)ONC2=NCCN23)cc1	NO
CO/N=C(\COc1ccc2c(=O)cc(-c3ccccc3)oc2c1)c1ccc(OC)cc1	NO
CCCCCn1ncc(-c2c(O)c(O)cc3c(O)c(-c4c(C)cc5c(-c6cnn(CCCCC)n6)c(O)c(O)cc5c4O)c(C)cc23)n1	YES

Query: recorded result category for `CCOc1ccccc1N=C(NC(=O)CC)SC` in this test NO

----------
# Test system: RXF 393 renal
# method: NCI tumour cell line growth inhibition, 48 h
reported property: log10 of TGI (log10 of the value in µM)
# log10 transformed; quantity=TGI; unit=µM

// solved cases for log10 of TGI follow
compound	reported property	reported result
Cc1cc(Cl)ccc1OCC(=O)Oc1c(Cl)c(Cl)c(Cl)c(Cl)c1Cl	log10 of TGI	1.57
O=c1[nH]ncc2[nH]c3c(c12)CCCc1ccccc1-3	log10 of TGI	1.62
COc1ccc(C(F)(F)F)cc1NC(=O)O/N=C(/Cl)C(C)C	log10 of TGI	1.57
CC(C)[C@H](COC(C)(C)C)N=CN1CSc2ccccc21	log10 of TGI	1.98
COc1ccc2c3c([nH]c2c1[N+](=O)[O-])C(C)N(C(=O)/C=C/c1ccccc1)CC3 (stereo unspecified)	log10 of TGI	1.38

Sample O=C1c2ccccc2N2OC3C4CCC(C4)C3C12c1ccccc1 (stereo unspecified) — what was its log10 of TGI? 1.89

Can you check `CN(C)CCNc1ccc2nnn3c4ccc(Cl)cc4c(=O)c1c23` next? 1.12

Can you check `O=C1c2ccccc2C(=O)c2c1c(NCCNCCO)c1cc[nH]c1c2NCCNCCO` next? 1.12

Can you check `COc1ccc(-c2ccc(=O)oc2-c2cc(OC)c(OC)c(OC)c2)cc1O` next? -1.96

----------
# Test system: MCF7 breast
# method: NCI tumour cell line growth inhibition, 48 h; in the data active = GI50 below about 0.43 µM; inactive = the rest
Allowed answers: active, inactive

Worked examples follow.
compound	answer label
COc1ccc(S(=O)(=O)N2CCCCC2)cc1NC(=O)c1[nH]c(C)c2c1CCCCC2=O	inactive
CCN(CCc1ccc(F)cc1)c1ccc(CO)c(Cl)c1	inactive
Cn1c(-c2c(N)n(Cc3ccc(Cl)cc3)c3nc(C#N)c(C#N)nc23)nc2ccccc21	inactive
COc1cc2c(cc1OCCN1C(=O)c3cccc4cccc(c34)C1=O)N=C[C@@H]1CCCN1C2=O	inactive
C=C(C)[C@@H]1CC[C@]2(c3ncc(C)o3)CC[C@]3(C)[C@H](CC[C@@H]4[C@@](C)(CCC#N)[C@H](C(=C)C)CC[C@]43C)[C@@H]12	inactive

Query: recorded result category for `CC(C)(C)c1ccc(NC(=O)c2cc(=O)c3ccccc3[nH]2)c(C(C)(C)C)c1O` in this test inactive

Can you check `CN([N-]C(=O)CC(=O)[N-]N(C)C(=S)c1ccccc1)C(=S)c1ccccc1.[Cu+2]` next? active

Can you check Cc1ccc(NCCN(C)CC(C)O)c2c(=O)c3ccc(Cl)cc3sc12 (centres undefined) next? inactive

Can you check COc1cc2c(cc1O)CCN[C@@]21CS[C@H]2c3c(OC(C)=O)c(C)c4c(c3C(COC1=O)N1C2C2c3c(cc(C)c(OC)c3O)CC([C@@H]1O)N2C)OCO4 (some centres undefined) next? active
